# SYSTEM_NAME: T1, biotin-Aβ1-20 (biotin (position not given))
# T1 peptide: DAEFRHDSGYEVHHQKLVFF
# TEST_NAME: BIACORE, biotin-Aβ1-20 as antigen; column IgG1#2
pKd: −log10 of the molar value.
// reported pKd per item
ENDPOINT_NAME: pKd

{"BINDER": "20C2-5A, affinity matured humanized 20C2, IgG1 humanized A version (antibody, V domains shown, also called SJ-p2-1F) VH: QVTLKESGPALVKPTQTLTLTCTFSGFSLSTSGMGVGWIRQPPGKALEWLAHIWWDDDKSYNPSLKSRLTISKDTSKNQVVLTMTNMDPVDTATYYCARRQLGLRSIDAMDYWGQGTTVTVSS VL: DVVMTQSPLSLPVTPGEPASISCRSSQSILHSNGNTYLEWYLQKPGQSPQLLIYKVSNRFSGVPDRFSGSGSGTDFTLKISRVEAEDVGVYYCFQSSFVPLTFGQGTKLEIKR", "ENDPOINT_NAME": "pKd", "RECORDED_RESULT": 8.82}
{"BINDER": "20C2-2A, affinity matured humanized 20C2, IgG1 humanized A version (antibody, V domains shown, also called SJ-p1-18) VH: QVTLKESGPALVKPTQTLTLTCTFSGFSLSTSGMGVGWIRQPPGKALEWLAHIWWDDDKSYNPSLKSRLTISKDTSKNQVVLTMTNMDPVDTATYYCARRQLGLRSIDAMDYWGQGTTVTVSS VL: DVVMTQSPLSLPVTPGEPASISCRSSQSILHSNGNTYLEWYLQKPGQSPQLLIYKVSNRFSGVPDRFSGSGSGTDFTLKISRVEAEDVGVYYCFQATRVPLTFGQGTKLEIKR", "ENDPOINT_NAME": "pKd", "RECORDED_RESULT": 8.70}
{"BINDER": "20C2-8B, affinity matured humanized 20C2, IgG1 humanized B version (antibody, V domains shown, also called SJ-p2-39) VH: QVTLKESGPALVKPTQTLTLTCTLSGFSLSTSGMGVGWIRQPPGKALEWLAHIWWDDDKSYNPSLKSRLTISKDTSKNQVVLTMTNMDPVDTATYYCARRQLGLRSIDAMDYWGQGTTVTVSS VL: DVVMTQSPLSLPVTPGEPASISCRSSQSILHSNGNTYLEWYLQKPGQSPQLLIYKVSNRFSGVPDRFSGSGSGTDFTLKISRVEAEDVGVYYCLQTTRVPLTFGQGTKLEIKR", "ENDPOINT_NAME": "pKd", "RECORDED_RESULT": 10.19}
{"BINDER": "20C2-6A, affinity matured humanized 20C2, IgG1 humanized A version (antibody, V domains shown, also called 4P1-22) VH: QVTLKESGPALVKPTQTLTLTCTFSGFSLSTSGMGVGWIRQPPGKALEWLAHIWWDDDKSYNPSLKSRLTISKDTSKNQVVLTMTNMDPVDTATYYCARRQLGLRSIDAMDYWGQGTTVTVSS VL: DVVMTQSPLSLPVTPGEPASISCRSSQSILHSNGNTYLEWYLQKPGQSPQLLIYKVSNRFSGVPDRFSGSGSGTDFTLKISRVEAEDVGVYYCFQSSRVPLTFGQGTKLEIKR", "ENDPOINT_NAME": "pKd", "RECORDED_RESULT": 9.15}
{"BINDER": "20C2-8A, affinity matured humanized 20C2, IgG1 humanized A version (antibody, V domains shown, also called SJ-p2-39) VH: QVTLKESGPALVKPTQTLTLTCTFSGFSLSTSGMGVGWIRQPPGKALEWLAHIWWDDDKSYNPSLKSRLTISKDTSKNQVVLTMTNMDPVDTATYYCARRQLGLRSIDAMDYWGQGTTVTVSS VL: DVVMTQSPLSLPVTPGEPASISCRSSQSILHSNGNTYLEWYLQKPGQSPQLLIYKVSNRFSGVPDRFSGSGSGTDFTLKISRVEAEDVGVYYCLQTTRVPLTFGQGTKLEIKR", "ENDPOINT_NAME": "pKd", "RECORDED_RESULT": 9.42}
